biological target: S100A4 (Homo sapiens); construct: made in house; host or cells: Escherichia coli BL21(DE3); experiment: Competition pull-down with native ligand NMIIA (1893–1923); assay type: binding; details: H14 library; competitor peptide 200 µM; read-out: Surface mapping KD (apparent), competition
Sequence (P26447 whole entry): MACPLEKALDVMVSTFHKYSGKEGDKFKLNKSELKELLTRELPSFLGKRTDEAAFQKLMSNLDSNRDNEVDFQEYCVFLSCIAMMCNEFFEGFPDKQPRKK
Recorded Kd by entry
Answer with the value and then the unit.

[[record]]
molecule = "CSCC[C@@H](CC(=O)N[C@H]1CCCC[C@@H]1C(=O)N[C@H]1CCCC[C@@H]1C(=O)N[C@H](CC(=O)N[C@H]1CCCC[C@@H]1C(N)=O)CC(C)C)NC(=O)[C@H]1CCCC[C@@H]1N"
tgt = "S100A4 (Homo sapiens)"
recordedmeasurement = "447 µM"

[[record]]
molecule = "CC(C)C[C@@H](CC(=O)N[C@H]1CCCC[C@@H]1C(=O)N[C@H]1CCCC[C@@H]1C(=O)N[C@H](CC(=O)N[C@H]1CCCC[C@@H]1C(N)=O)C(C)C)NC(=O)[C@H]1CCCC[C@@H]1N"
tgt = "S100A4 (Homo sapiens)"
recordedmeasurement = "192 µM"

[[record]]
molecule = "CC[C@H](C)[C@@H](CC(=O)N[C@H]1CCCC[C@@H]1C(N)=O)NC(=O)[C@H]1CCCC[C@@H]1NC(=O)[C@H]1CCCC[C@@H]1NC(=O)C[C@@H](NC(=O)[C@H]1CCCC[C@@H]1N)[C@@H](C)O"
tgt = "S100A4 (Homo sapiens)"
recordedmeasurement = "473 µM"

[[record]]
molecule = "CC(C)C[C@@H](CC(=O)N[C@H]1CCCC[C@@H]1C(N)=O)NC(=O)[C@H]1CCCC[C@@H]1NC(=O)[C@H]1CCCC[C@@H]1NC(=O)C[C@H](Cc1ccccc1)NC(=O)[C@H]1CCCC[C@@H]1N"
tgt = "S100A4 (Homo sapiens)"
recordedmeasurement = "280 µM"

[[record]]
molecule = "CC[C@H](C)[C@@H](CC(=O)N[C@H]1CCCC[C@@H]1C(=O)N[C@H]1CCCC[C@@H]1C(=O)N[C@@H](CCSC)CC(=O)N[C@H]1CCCC[C@@H]1C(N)=O)NC(=O)[C@H]1CCCC[C@@H]1N"
tgt = "S100A4 (Homo sapiens)"
recordedmeasurement = "217 µM"


Asked: Return reported Kd; argument: `CC(C)C[C@@H](CC(=O)N[C@H]1CCCC[C@@H]1C(N)=O)NC(=O)[C@H]1CCCC[C@@H]1NC(=O)[C@H]1CCCC[C@@H]1NC(=O)C[C@H](Cc1c[nH]c2ccccc12)NC(=O)[C@H]1CCCC[C@@H]1N`
Given back: 255 µM

Asked: Try this compound next: `CC[C@H](C)[C@@H](CC(=O)N[C@H]1CCCC[C@@H]1C(=O)N[C@H]1CCCC[C@@H]1C(=O)N[C@H](CC(=O)N[C@H]1CCCC[C@@H]1C(N)=O)C(C)C)NC(=O)[C@H]1CCCC[C@@H]1N`
Given back: 187 µM

Asked: What do you have for `CC(C)[C@@H](CC(=O)N[C@H]1CCCC[C@@H]1C(N)=O)NC(=O)[C@H]1CCCC[C@@H]1NC(=O)[C@H]1CCCC[C@@H]1NC(=O)C[C@@H](NC(=O)[C@H]1CCCC[C@@H]1N)C(C)C` ?
Given back: 356 µM

Asked: And for `CC(C)C[C@@H](CC(=O)N[C@H]1CCCC[C@@H]1C(N)=O)NC(=O)[C@H]1CCCC[C@@H]1NC(=O)[C@H]1CCCC[C@@H]1NC(=O)C[C@@H](NC(=O)[C@H]1CCCC[C@@H]1N)[C@@H](C)O` ?
Given back: 473 µM
